system-name: UniProt P00156
measurement-kind: pIC50
Worth noting: pIC50 values are minus log10 of concentrations stated in mol/L.

Requested field: pIC50. Item: O=C1C(O)=C([C@H]2CC[C@H](c3ccc(Cl)cc3)CC2)C(=O)c2ccccc21 5.74

Just for reference, paper PMC5159300 is where these values come from.
